Source: PubChem BioAssay (Tox21)

Test: qHTS assay for identifying genotoxic compounds that show differential cytotoxicity against isogenic chicken DT40 cell lines with known DNA damage response pathways - wild type cell line (AID 743012); further: nearly all actives have a fitted effect of over 60% in size; further: potency means the concentration at half of the fitted maximal effect
Settings: DT40 wild type chicken cells viability, CellTiter-Glo, 40 h; series mostly up to 68.4 µM
Excerpt: U.S. Tox21 Program National Center for Advancing Translational Sciences [NCATS] NIH Chemical Genomics Center [NCGC] U.S. Environmental Protection Agency [EPA] National Institutes of Environmental Health Sciences [NIEHS] National Toxicology Program [NTP] U.S. Food and Drug Administration [FDA] Tox21 Assay Overview: DNA repair pathways play a critical role in cellular homeostasis by repairing DNA damage induced by endogenous processes and xenobiotics. […]
Inconclusive results are not listed. Calls of active or inactive are those of the source. The call rests on the fitted dose curve; in most records, active means well fitted cell-killing curve with a large enough effect in the repeat runs; inconclusive means weak or mixed curves, or effect the other way; inactive means no such curve, though single readings can be large or run the other way.
endpoint.label: Potency

Consider the worked cases shown below.
O=c1[nH][nH]c(=O)c2cc([N+](=O)[O-])ccc12 | inactive
CCO[Si](C)(CCCOCC1CO1)OCC (configuration not stated) | 13.7 µM (active)
CCOCCC(=O)OCC | inactive
O=[N+]([O-])c1ccc2ncccc2c1 | inactive
O=C(O)CCC(=O)c1ccc(-c2ccccc2)cc1 | inactive
CNCc1ccc(NC(=O)c2c[nH]c3c2C(=O)CCC3)cc1 | 61.1 µM (active)

Continue with the compound presented below.
*Q* Suppose we examine the compound CCCCCCC(CO)CCCC (configuration not stated) ; what Potency value has been reported?
*A* inactive

====

experiment: qHTS assay to identify small molecule antagonists of the peroxisome proliferator-activated receptor delta (PPARd) signaling pathway - cell viability counter screen (AID 743213); conditions: PPARd-bla HEK293H viability, CellTiter-Glo luminescence, 17 h; series mostly up to 62 µM; further: nearly all actives have a fitted effect of over 50% in size
Records with an inconclusive call do not appear. Calls of active or inactive are those of the source. Calls follow the shape of the dose curve; as a rule, active = well fitted cell-killing curve with a large enough effect in the repeat runs; inconclusive = weak or mixed curves; inactive = no such curve, though single readings can be large or run the other way.
Response enum: 1 (active), 0 (inactive)

*Q* Fill in: this test's call for `CCN(CC)C(=O)N1CCN(C)CC1` is ___
*A* 0

*Q* Fill in: this test's call for CNS(=O)(=O)c1cc(C(=O)N2CCC(CCN3C4CCC3CC(n3c(C)nc5ccccc53)C4)(c3cccc(F)c3)CC2)c(Cl)cc1F (stereo unspecified) is ___
*A* 1

*Q* Fill in: this test's call for `O=C(O)CNC(=O)c1ccccc1I` is ___
*A* 0

*Q* Fill in: this test's call for `CC(=O)N[C@@H](Cc1ccc(O)cc1)C(=O)O` is ___
*A* 0

*Q* Fill in: this test's call for C1=CCC2CC=CC2C1 (stereo unspecified) is ___
*A* 0

*Q* Fill in: this test's call for `CCN(CC)CCNC(=O)c1cc(Cl)c(N)cc1OC` is ___
*A* 0

*Q* Fill in: this test's call for COc1ccc(-n2nc(C(F)F)cc2-c2ccc(S(C)=O)cc2)cc1 (stereo unspecified) is ___
*A* 0

*Q* Fill in: this test's call for `O=C(O)c1cc(Cl)cc(Cl)c1O` is ___
*A* 0

*Q* Fill in: this test's call for `CCc1ccc(C)cc1` is ___
*A* 0

*Q* Fill in: this test's call for `CCCOC(=O)c1c(Cl)c(Cl)c(Cl)c(Cl)c1C(=O)OCCC` is ___
*A* 0

*Q* Fill in: this test's call for `O=C(C(=O)c1ccco1)c1ccco1` is ___
*A* 0

*Q* Fill in: this test's call for `CCCCCCCC/C=C\CCCCCCCC(=O)OCCO` is ___
*A* 0

*Q* Fill in: this test's call for `c1ccc2sc(SSc3nc4ccccc4s3)nc2c1` is ___
*A* 0

*Q* Fill in: this test's call for `O=c1[nH]c2cc(C(F)(F)F)c(N3CCOCC3)cc2n(CP(=O)(O)O)c1=O` is ___
*A* 0

*Q* Fill in: this test's call for `CCN(CC)C(=O)/C(C#N)=C/c1cc(O)c(O)c([N+](=O)[O-])c1` is ___
*A* 0

*Q* Fill in: this test's call for CC(O)Cn1cnc2c1c(=O)n(C)c(=O)n2C (stereo unspecified) is ___
*A* 0

*Q* Fill in: this test's call for `CC(C)COC(=O)c1ccc(O)cc1` is ___
*A* 0

*Q* Fill in: this test's call for `CC(C)(C)S` is ___
*A* 0

*Q* Fill in: this test's call for `CCOc1ncc(F)c(=O)[nH]1` is ___
*A* 0

*Q* Fill in: this test's call for `CC(C)OC(=O)c1ccccc1C(=O)OC(C)C` is ___
*A* 0

*Q* Fill in: this test's call for `CCCCCCCC/C=C/C(=O)O` is ___
*A* 0

*Q* Fill in: this test's call for `O=C1[C@@H]2[C@H]3CC[C@H](C3)[C@@H]2C(=O)N1CCCCN1CCN(c2ncccn2)CC1` is ___
*A* 0

*Q* Fill in: this test's call for `COc1ccc(C2C(=O)c3ccccc3C2=O)cc1` is ___
*A* 0

*Q* Fill in: this test's call for `O=C(O)c1cccc(C[C@@H]2COc3ccc(OCc4nc5cc(F)ccc5s4)cc3[C@@H]2O)c1` is ___
*A* 0

*Q* Fill in: this test's call for `COc1ccc(CCN(C)CCCN2CCc3cc(OC)c(OC)cc3CC2=O)cc1OC` is ___
*A* 0

*Q* Fill in: this test's call for `O=C1NC(=O)c2cccc3cccc1c23` is ___
*A* 0

====

assay: qHTS assay to identify small molecule agonists of the estrogen receptor beta (ER-beta) signaling pathway - cell viability counter screen (AID 1259380); details: ER-beta-bla HEK293T viability, CellTiter-Glo luminescence, 16 h; series mostly up to 92.4 µM; further: on the % scale 0 is the no-effect control and ±100 the full control effect; nearly all actives have a fitted effect of over 30% in size
Records with an inconclusive call do not appear. Active and inactive are the calls of the source. The call rests on the fitted dose curve; in most records, active means well fitted cell-killing curve with a large enough effect in the repeat runs; inconclusive means weak or mixed curves, or effect the other way; inactive means flat fitted curve, though single readings scatter.
endpoint.label: activity change, negative = cytotoxicity

*Q* Suppose we examine the molecule CCC(Cl)CC(Cl)C(Cl)C(Cl)C(Cl)C(C)Cl (centres undefined) ; what activity change, negative = cytotoxicity value has been reported?
*A* -10.7% [at 19 µM] (inactive)

*Q* Suppose we examine the molecule `c1ccc2sc(SSc3nc4ccccc4s3)nc2c1` ; what activity change, negative = cytotoxicity value has been reported?
*A* -1.6% [at 19 µM] (inactive)

*Q* Suppose we examine the molecule `CCCCCCCCCCCCCOC(=O)CCSCCC(=O)OCCCCCCCCCCCCC` ; what activity change, negative = cytotoxicity value has been reported?
*A* 4.18% [at 19 µM] (inactive)

*Q* Suppose we examine the molecule `CCCCCCCCCCCCCCN(C)C` ; what activity change, negative = cytotoxicity value has been reported?
*A* -12.9% [at 19 µM] (inactive)

====

Kindly supply the reported Potency values for the records listed here.
assay: A CellTox Green Cytotoxicity Assay to monitor cytotoxicity in HepG2 cells - 32 hour (AID 1224883); conditions: CellTox Green fluorescence; series mostly up to 76.8 µM; further: potency means the concentration at half of the fitted maximal effect; nearly all actives have a fitted effect of over 50% in size
Records with an inconclusive call do not appear. Active and inactive are the calls of the source. Calls follow the shape of the dose curve; as a rule, active = well fitted activation curve with a large enough effect in the repeat runs; inconclusive = weak or mixed curves; inactive = flat fitted curve, though single readings scatter.

*Q* Suppose we examine the compound CN1CCCN(C(c2ccccc2)c2ccc(Cl)cc2)CC1 (centres undefined) ; what Potency value has been reported?
*A* 21.3 µM (active)

*Q* Suppose we examine the compound `O=C(NS(=O)(=O)/C=C/c1ccccc1)c1ccc(F)cc1Cl` ; what Potency value has been reported?
*A* 54.9 µM (active)

*Q* Suppose we examine the compound `O[C@@H](CNC[C@H](O)[C@H]1CCc2cc(F)ccc2O1)[C@@H]1CCc2cc(F)ccc2O1` ; what Potency value has been reported?
*A* 10.7 µM (active)

*Q* Suppose we examine the compound `O=C(/C=C/c1ccc([N+](=O)[O-])cc1)c1ccccc1` ; what Potency value has been reported?
*A* 21.9 µM (active)

====

Assay: qHTS assay to identify small molecule agonists of the androgen receptor (AR) signaling pathway in the presence of an antagonist - cell viability counter screen (AID 1259379); further: nearly all actives have a fitted effect of over 25% in size
Settings: MDA-kb2 viability, CellTiter-Fluor, 16 h; series mostly up to 92.4 µM
From the text: National Center for Advancing Translational Sciences [NCATS] NIH Chemical Genomics Center [NCGC] U.S. Environmental Protection Agency [EPA] National Institutes of Environmental Health Sciences [NIEHS] National Toxicology Program [NTP] U.S. Food and Drug Administration [FDA] Androgen receptor (AR) is an important member of nuclear receptor family. Its signaling plays a critical role in AR-dependent prostate cancer and other androgen related diseases. […]
Results filed as inconclusive are left out. Active and inactive are the calls of the source. Calls come from the whole dose curve; as a rule, active = well fitted cell-killing curve with a large enough effect in the repeat runs; inconclusive = weak or mixed curves, or effect the other way; inactive = flat fitted curve, though single readings scatter.
Response enum: True = active, False = inactive

*Q* Fill in: this test's call for `COC(=O)c1sccc1S(N)(=O)=O` is ___
*A* False

*Q* Fill in: this test's call for `Nc1cccc2c(N)cccc12` is ___
*A* False

*Q* Fill in: this test's call for `CC1=C2[C@@H]([C@H](C)CC[C@H]2/C=C(\C)C(=O)O)[C@H](O)C1` is ___
*A* False

*Q* Fill in: this test's call for `O=C(C(=O)c1ccco1)c1ccco1` is ___
*A* False

*Q* Fill in: this test's call for CC1CCCC(=O)C1=O (stereo not drawn) is ___
*A* False

*Q* Fill in: this test's call for `CC[C@H]1OC(=O)[C@H](C)[C@@H](O[C@H]2C[C@@](C)(OC)[C@@H](O)[C@H](C)O2)[C@H](C)[C@@H](O[C@@H]2O[C@H](C)C[C@H](N(C)C)[C@H]2O)[C@](C)(O)C[C@@H](C)CN(C)[C@H](C)[C@@H](O)[C@]1(C)O` is ___
*A* False

*Q* Fill in: this test's call for `CC(=O)C(C)=O` is ___
*A* False

*Q* Fill in: this test's call for CC(CN(CCN(CC(C)OCCO)CC(C)OCCO)CC(C)OCCO)OCCO (stereo not drawn) is ___
*A* True

*Q* Fill in: this test's call for `CCN(CC)CC(=O)Nc1c(C)cccc1C(=O)OC` is ___
*A* False

*Q* Fill in: this test's call for CCC1CCC(CCC(=O)O)C1 (stereo not drawn) is ___
*A* False

*Q* Fill in: this test's call for `CCN(CC)CCNC(=O)c1cc(Cl)c(N)cc1OC` is ___
*A* False

*Q* Fill in: this test's call for `Cc1ccc(S(=O)(=O)NC(=O)NC2CCCCC2)cc1` is ___
*A* False

*Q* Fill in: this test's call for `COc1ccc(/C=C/C(=O)c2ccc(OC)cc2OC)cc1` is ___
*A* False
